The following molecules are listed with their measured IC50 values.
# system_tested: JAK2 (Homo sapiens (Human), UniProt O60674)
# Sequence (O60674 849-1124): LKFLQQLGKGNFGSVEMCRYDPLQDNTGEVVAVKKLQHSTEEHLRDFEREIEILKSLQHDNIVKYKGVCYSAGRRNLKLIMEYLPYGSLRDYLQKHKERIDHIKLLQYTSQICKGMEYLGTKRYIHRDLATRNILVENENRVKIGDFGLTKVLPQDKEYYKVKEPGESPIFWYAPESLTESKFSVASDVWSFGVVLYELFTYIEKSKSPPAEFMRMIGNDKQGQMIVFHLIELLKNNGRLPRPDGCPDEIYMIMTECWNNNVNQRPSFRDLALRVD
# assay_method_text: JAK Caliper Enzyme Assay at 1 mM ATP, JAK2
# Format: biochemical
Numeric only. Scale: nM

Worked set:
[
  {
    "molecule": "N#CCC1(n2ccc(-c3nc(-c4ccncc4)cc4ncccc34)n2)CN(CC(F)(F)F)C1 [Example 172]",
    "IC50 [nM]": 388
  },
  {
    "molecule": "CO[C@H]1C[C@](CC#N)(n2ccc(-c3nc(-c4cc(N)[nH]n4)cc4ncccc34)n2)C1 [Example 53]",
    "IC50 [nM]": 396
  }
]

Attention now turns to another entry.
Looking up CC(=O)Nc1cc(-c2cc3ncccc3c(-c3ccn(C4(CC#N)CN(S(C)(=O)=O)C4)n3)n2)cnc1C [Example 228] , I see its IC50 listed as 6630

====

The following molecules are listed with their measured IC50 values.
# system_tested: UniProtKB P29597
# Sequence (P29597 897-1176): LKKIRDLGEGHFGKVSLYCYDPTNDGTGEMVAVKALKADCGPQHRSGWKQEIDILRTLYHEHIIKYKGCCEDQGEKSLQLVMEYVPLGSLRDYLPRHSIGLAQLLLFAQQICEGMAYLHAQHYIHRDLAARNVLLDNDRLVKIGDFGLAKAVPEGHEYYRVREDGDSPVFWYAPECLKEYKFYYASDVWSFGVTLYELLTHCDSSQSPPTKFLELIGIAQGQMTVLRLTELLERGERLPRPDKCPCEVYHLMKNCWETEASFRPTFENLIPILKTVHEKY
# assay_method_text: JAK Caliper Enzyme Assay at 1 mM ATP, TYK2
# Format: biochemical
# reported_conditions: JAK Caliper enzyme assay
Write the numeric value and follow it with the unit.

[
  {
    "smiles_structure": "N#CC[C@]1(n2ncc(-c3cc(-c4cc[nH]c(=O)c4)cc4ncccc34)n2)C[C@H](C#N)C1",
    "system_tested": "UniProtKB P29597",
    "measured": "257 nM"
  }
]

Looking up `CO[C@H]1C[C@@](CC#N)(n2cc(-c3cc(-c4cnn(C)c4)cc4nccn34)cn2)C1` , I see its IC50 listed as 395 nM

Looking up `CS(=O)(=O)N1CC(CC#N)(n2ncc(-c3cc(-c4c[nH]c(=O)[nH]c4=O)cc4ncccc34)n2)C1` , I see its IC50 listed as 276 nM

Looking up `Cn1cc(-c2cc3nccnc3c(-c3cnn(C4(CC#N)CN(CC#N)C4)c3)n2)cn1` , I see its IC50 listed as 11 nM

Looking up `CS(=O)(=O)N1CC(CC#N)(n2ncc(-c3cc(-c4cc(O)cc(F)c4)cc4ncccc34)n2)C1` , I see its IC50 listed as 631 nM

Looking up `N#CC[C@]1(n2ncc(-c3cc(-c4cnc5ncccn45)cc4ncccc34)n2)C[C@@H](C#N)C1` , I see its IC50 listed as 110 nM

Looking up `N#CC[C@]1(n2ncc(-c3cc(-c4ccc(N)nn4)cc4ncccc34)n2)C[C@@H](C#N)C1` , I see its IC50 listed as 16 nM

====

# system_tested: JAK2 (Homo sapiens (Human), UniProt O60674)
# assay_method_text: JAK Caliper Enzyme Assay at 1 mM ATP, JAK2
# Format: biochemical
# reported_conditions: JAK Caliper enzyme assay
The following compounds are listed with their measured log10(IC50) values.
// stored as log10 of IC50 expressed in nM

Worked set:
[
  {
    "compound": "CS(=O)(=O)Nc1cccc(-c2cc(-c3cnn(C4(CC#N)CC(C#N)C4)n3)c3cccnc3c2)n1 (stereo not shown) [Example 372]",
    "log10(IC50)": 1.90
  },
  {
    "compound": "N#CC[C@]1(n2ncc(-c3cc(-c4cc[nH]c(=O)c4)cc4ncccc34)n2)C[C@H](C#N)C1",
    "log10(IC50)": 3.23
  },
  {
    "compound": "CS(=O)(=O)N1CC(CC#N)(n2ncc(-c3cc(-c4ccc(=O)[nH]c4)cc4ncccc34)n2)C1",
    "log10(IC50)": 2.99
  }
]

Here `CS(=O)(=O)N1CC(CC#N)(n2ncc(-c3cc(-c4ccc(CN)cc4)cc4ncccc34)n2)C1` was tested on JAK2 (Homo sapiens (Human), UniProt O60674), and its log10(IC50) came to 2.97

Here `Cc1ncc(-c2cc(-c3cnn([C@]4(CC#N)C[C@H](C#N)C4)c3)n3ccnc3c2)[nH]1` was tested on JAK2 (Homo sapiens (Human), UniProt O60674), and its log10(IC50) came to 2.93

Here `N#CC[C@]1(n2ncc(-c3cc(-c4cnc5ncccn45)cc4ncccc34)n2)C[C@H](C#N)C1` was tested on JAK2 (Homo sapiens (Human), UniProt O60674), and its log10(IC50) came to 3.91

Here `CS(=O)(=O)N1CC(CC#N)(n2ncc(-c3cc(-c4cccc(CO)c4F)cc4ncccc34)n2)C1` was tested on JAK2 (Homo sapiens (Human), UniProt O60674), and its log10(IC50) came to 3.75
